# measuredTarget: CDK7/CycH/Mat1 (Homo sapiens)
# Construct: purchased Carna
# Sequence (P50613 whole entry): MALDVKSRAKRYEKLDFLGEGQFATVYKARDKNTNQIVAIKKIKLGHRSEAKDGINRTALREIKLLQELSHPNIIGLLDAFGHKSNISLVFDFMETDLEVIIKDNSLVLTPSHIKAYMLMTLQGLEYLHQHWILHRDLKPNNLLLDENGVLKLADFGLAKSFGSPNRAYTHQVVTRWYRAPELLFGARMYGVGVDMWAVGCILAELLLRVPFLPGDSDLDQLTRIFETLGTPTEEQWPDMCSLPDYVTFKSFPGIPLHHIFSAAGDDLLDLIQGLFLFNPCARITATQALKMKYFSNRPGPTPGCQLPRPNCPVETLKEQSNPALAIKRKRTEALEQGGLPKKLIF
# Sequence (P51946 whole entry partner): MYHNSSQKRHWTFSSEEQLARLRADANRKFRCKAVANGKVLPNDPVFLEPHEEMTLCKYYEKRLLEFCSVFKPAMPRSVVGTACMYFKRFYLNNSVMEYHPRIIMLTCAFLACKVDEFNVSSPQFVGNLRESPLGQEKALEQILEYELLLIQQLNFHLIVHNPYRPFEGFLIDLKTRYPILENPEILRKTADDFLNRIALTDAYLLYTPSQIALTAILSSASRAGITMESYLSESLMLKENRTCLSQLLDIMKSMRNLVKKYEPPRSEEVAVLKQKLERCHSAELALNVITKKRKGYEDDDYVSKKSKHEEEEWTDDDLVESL
# Sequence (P51948 whole entry partner): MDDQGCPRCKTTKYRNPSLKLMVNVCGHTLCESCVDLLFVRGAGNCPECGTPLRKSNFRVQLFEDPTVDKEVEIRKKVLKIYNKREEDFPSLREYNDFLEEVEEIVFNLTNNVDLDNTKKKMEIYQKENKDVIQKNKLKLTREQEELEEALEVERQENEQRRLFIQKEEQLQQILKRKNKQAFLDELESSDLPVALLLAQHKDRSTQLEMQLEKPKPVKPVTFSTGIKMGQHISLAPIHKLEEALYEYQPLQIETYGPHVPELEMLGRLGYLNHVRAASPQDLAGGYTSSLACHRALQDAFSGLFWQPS
# experimentSummary: CDK7 Enzymatic Activity Assay (Lance Kinase Activity Assay, FRET)
# Format: biochemical
# measurementSetup: Table 5A; 25 μM ATP final; read-out: CDK7: IC50 [mM] for CDK7 inhibition (the above defined ranges apply)
# Description: This protocol describes how the Lance Kinase Activity Assay was performed to determine IC50 values of compounds of general formula (I) against CDK/Cyclin complexes. […] It is detected by using a specific EU-labeled anti-phospho peptide antibody. […] For positive controls, 2 μl of DMSO working solution were mixed with 6 μl CDK7/CycH/Mat1/substrate working solution and 2 μl ATP working solution. Positive and negative controls were calculated from at least 8 different wells. […]
List of IC50 values.

Consider the following illustrative entries.
State the recorded IC50 for this entry: COc1cccc([C@H](C)Nc2nc(N3CCC4(CCCN4)CC3)nc3c(C(C)C)cnn23)c1 [(VIII-ai)]
< 10 nM

State the recorded IC50 for this entry: COc1cccc([C@H](C)Nc2nc(N3CCCC34CCNCC4)nc3c(C(C)C)cnn23)c1 [(VIII-ak)]
10 to 30 nM

# evaluate next
State the recorded IC50 for this entry: CC(C)c1cnn2c(N[C@@H](C)c3ccccc3)nc([S+]([O-])C3CCNCC3)nc12 (stereo partly drawn) [(X-a)]
< 10 nM
